measuredTarget: plasma purified human complement protein C3 (human) (UniProt P01024)
Sequence (P01024 23-667, chain 1 of 2): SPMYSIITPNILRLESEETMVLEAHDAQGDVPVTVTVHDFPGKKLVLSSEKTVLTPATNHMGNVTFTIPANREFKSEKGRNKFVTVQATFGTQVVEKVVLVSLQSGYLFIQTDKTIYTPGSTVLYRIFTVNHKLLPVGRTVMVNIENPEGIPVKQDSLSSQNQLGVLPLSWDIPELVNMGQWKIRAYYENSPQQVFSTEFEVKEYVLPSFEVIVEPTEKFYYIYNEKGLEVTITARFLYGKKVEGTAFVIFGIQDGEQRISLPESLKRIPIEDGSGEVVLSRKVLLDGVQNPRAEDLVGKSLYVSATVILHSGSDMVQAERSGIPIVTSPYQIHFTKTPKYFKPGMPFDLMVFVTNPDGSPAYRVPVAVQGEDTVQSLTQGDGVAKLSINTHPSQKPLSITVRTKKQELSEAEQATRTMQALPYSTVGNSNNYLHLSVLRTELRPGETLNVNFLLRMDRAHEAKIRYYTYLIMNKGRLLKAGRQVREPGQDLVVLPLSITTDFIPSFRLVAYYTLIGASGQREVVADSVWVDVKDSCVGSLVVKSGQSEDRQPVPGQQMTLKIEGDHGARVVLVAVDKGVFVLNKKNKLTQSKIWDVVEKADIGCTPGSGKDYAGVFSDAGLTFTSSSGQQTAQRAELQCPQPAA
Sequence (P01024 672-1663, chain 2 of 2): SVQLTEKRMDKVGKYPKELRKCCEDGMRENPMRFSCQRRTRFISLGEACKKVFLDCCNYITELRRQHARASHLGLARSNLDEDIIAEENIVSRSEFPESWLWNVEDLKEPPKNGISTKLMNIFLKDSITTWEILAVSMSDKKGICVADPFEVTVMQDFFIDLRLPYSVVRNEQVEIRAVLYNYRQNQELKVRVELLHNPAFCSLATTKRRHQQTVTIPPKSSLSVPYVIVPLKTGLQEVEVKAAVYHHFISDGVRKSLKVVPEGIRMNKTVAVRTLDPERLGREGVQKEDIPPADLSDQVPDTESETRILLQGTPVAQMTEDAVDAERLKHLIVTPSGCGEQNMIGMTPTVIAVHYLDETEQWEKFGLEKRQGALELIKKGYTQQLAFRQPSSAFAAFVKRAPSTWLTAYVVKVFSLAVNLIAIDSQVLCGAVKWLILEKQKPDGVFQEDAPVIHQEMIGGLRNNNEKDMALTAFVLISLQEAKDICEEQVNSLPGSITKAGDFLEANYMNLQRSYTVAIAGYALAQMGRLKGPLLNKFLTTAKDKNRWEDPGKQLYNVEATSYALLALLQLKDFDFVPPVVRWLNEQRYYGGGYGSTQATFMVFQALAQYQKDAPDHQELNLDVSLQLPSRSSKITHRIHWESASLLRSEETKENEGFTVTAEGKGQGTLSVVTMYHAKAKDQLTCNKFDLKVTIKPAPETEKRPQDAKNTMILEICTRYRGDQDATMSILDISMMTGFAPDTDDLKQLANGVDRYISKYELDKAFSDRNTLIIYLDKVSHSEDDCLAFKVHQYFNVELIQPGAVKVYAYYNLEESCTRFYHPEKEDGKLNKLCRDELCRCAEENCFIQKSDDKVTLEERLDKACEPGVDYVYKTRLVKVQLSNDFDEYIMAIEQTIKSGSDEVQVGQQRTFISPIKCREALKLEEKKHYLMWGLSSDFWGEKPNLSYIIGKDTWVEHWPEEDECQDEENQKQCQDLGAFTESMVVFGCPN
testMethodNotes: cell-based or functional assay
Attribute: EC50 of hC3 cleavage
Numbers only here, please. The scale is nM.

Consider the worked cases shown below.
>>> assayresult("MTSP-1 H40P/I41R/ins97aE/F97T/T98G/F99L/C122S/Q175L/Q192E (enzyme) VVGGTDADEGEWPWQVSLHALGQGPRCGASLISPNWLVSAAHCYIDDRGFRYSDPTQWTAFLGLHDQSQRSAPGVQERRLKRIISHPFFNDTEGLDYDIALLELEKPAEYSSMVRPISLPDASHVFPAGKAIWVTGWGHTQYGGTGALILQKGEIRVINQTTCENLLPQLITPRMMCVGFLSGGVDSCEGDSGGPLSSVEADGRIFQAGVVSWGDGCAQRNKPGVYTRLPLFRDWIKENTGV")
442
>>> assayresult("MTSP-1 H40R/I41H/Y60gF/F97D/F99L/C122S/Q175K/Q192G/D217R/K224Q (enzyme) VVGGTDADEGEWPWQVSLHALGQGRHCGASLISPNWLVSAAHCYIDDRGFRFSDPTQWTAFLGLHDQSQRSAPGVQERRLKRIISHPFFNDDTLDYDIALLELEKPAEYSSMVRPISLPDASHVFPAGKAIWVTGWGHTQYGGTGALILQKGEIRVINQTTCENLLPQKITPRMMCVGFLSGGVDSCGGDSGGPLSSVEADGRIFQAGVVSWGRGCAQRNQPGVYTRLPLFRDWIKENTGV")
93.4

// next entry
For MTSP-1 I41G/F97S/F99L/C122S/G151N/Q175L/Q192G/D217I (enzyme) VVGGTDADEGEWPWQVSLHALGQGHGCGASLISPNWLVSAAHCYIDDRGFRYSDPTQWTAFLGLHDQSQRSAPGVQERRLKRIISHPFFNDSTLDYDIALLELEKPAEYSSMVRPISLPDASHVFPAGKAIWVTGWGHTQYGGTNALILQKGEIRVINQTTCENLLPQLITPRMMCVGFLSGGVDSCGGDSGGPLSSVEADGRIFQAGVVSWGIGCAQRNKPGVYTRLPLFRDWIKENTGV , write its EC50 of hC3 cleavage.
6.84
